System: RWPE-1
Test: Cytotoxicity of HDAB001 in prostate cell lines, RWPE-1 (non-tumor)
Type: cell-based
Conditions: RWPE-1, AR pos
pIC50: −log10 of the molar value.

| COMPOUND_SMILES | pIC50 |
| --- | --- |
| COC(=O)/C=C\C=C(\C(=O)OC)c1ccc(Cl)c(Cl)c1 | 4.40 |
